Test: Luminescence Cell-Based Dose Confirmation HTS to Identify Inhibitors of Platelet Dense Granule Release. [Related pubchem assays: 1663 (Primary HTS), 1678 (Summary of Project)]
Type: functional
Active and inactive are the calls of the source.
measurement-kind: EC50

- molecule: "O=C(CSc1nc(-c2ccccc2)cs1)NCc1ccco1"
  EC50: "> 112 µM (not active)"
- molecule: "OC(CNCc1cccc(Br)c1)c1ccccc1 (centres undefined)"
  EC50: "20.7 µM (active)"
- molecule: "COC(=O)c1sccc1NC(=O)Nc1ccc(F)cc1"
  EC50: "1.67 µM (active)"

Form field EC50, entry COc1cccc(CC2(CO)CCCN(Cc3[nH]c4ccc(C)cc4c3C)C2)c1 (centres undefined) : > 112 µM (not active)

====

Molecular target: Large T antigen (Simian virus 40, UniProt P03070);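 note: Confirmatory-stage PubChem screen for compounds that inhibit SV40 T antigen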
Sequence (P03070 whole entry): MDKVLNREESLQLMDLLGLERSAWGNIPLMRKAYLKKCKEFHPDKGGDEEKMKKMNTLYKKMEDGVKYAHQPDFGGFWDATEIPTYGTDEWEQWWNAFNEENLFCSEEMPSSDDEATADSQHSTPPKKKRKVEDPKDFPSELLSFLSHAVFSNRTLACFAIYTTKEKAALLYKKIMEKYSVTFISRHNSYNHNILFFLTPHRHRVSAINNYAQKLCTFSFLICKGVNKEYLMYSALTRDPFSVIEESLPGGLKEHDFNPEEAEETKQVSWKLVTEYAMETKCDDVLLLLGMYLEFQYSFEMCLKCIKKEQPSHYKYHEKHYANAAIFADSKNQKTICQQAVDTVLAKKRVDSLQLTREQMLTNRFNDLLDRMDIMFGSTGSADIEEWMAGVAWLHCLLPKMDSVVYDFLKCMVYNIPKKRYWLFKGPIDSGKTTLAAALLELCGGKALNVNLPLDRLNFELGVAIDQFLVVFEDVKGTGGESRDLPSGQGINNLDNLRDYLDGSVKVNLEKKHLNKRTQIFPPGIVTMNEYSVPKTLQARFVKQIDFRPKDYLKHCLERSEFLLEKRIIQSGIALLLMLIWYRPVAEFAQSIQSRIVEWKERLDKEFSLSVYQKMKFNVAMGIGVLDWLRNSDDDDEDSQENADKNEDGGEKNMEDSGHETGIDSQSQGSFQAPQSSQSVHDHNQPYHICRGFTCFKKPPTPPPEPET
Assay type: functional, Betapolyomavirus macacae
Active and inactive are the calls of the source.
Attribute: IC50

These recorded examples may help you get a feel for the data.
- chemical-string: "COc1cc2c(cc1OC)C[N+](C)(C)CC2"
  assay-system: "Large T antigen (Simian virus 40, UniProt P03070)"
  result: "55.1 µM (active)"
- chemical-string: "C/C(=N/NC(N)=S)c1cc2ccc(O)cc2oc1=O"
  assay-system: "Large T antigen (Simian virus 40, UniProt P03070)"
  result: "27.7 µM (active)"
- chemical-string: "O=C(NC1CCCC1)c1sc(=S)n2c1[nH]c(=O)c1ccccc12"
  assay-system: "Large T antigen (Simian virus 40, UniProt P03070)"
  result: "> 100 µM (active)"
- chemical-string: "CC(C)(C)NC(=O)NC(=O)CN1CCN(c2ccc(O)cc2)CC1"
  assay-system: "Large T antigen (Simian virus 40, UniProt P03070)"
  result: "21.2 µM (active)"

Note to self: IC50 recorded for `O=C(N/N=C/c1ccc(O)c(O)c1)C1CC1` was 5.55 µM (active)

Reported IC50 of `O=C(CN1CCN(c2ccc(O)cc2)CC1)Nc1ccc2c(c1)OCCO2` : 8.22 µM (active)

What the record says about `Cc1cc(O)nc2ccc(S(=O)(=O)Nc3ccc(O)cc3)cc12` : IC50 is 7.49 µM (active)

The recorded IC50 for `COc1ccc(NN=Nc2nc3c(=O)n(C)c(=O)n(C)c3[nH]2)cc1` is 36.8 µM (active)

get_value(item= `CCCc1cc(O)nc(Nc2ccc(O)cc2)n1` , readout=IC50) returns 6.91 µM (active)

====

Molecular target: Insulin-like growth factor 1 receptor (Homo sapiens)
Test: Navigating the Kinome. Panel member name: IGF1R
Format: functional
Calls of active or inactive are those of the source.
Outcome field: choose from active, inactive

Field: example entries. Status: answers known.
- compound: "c1ccc(CNc2nc(Nc3cc(C4CC4)[nH]n3)c3sccc3n2)cc1"
  category: "active"
- compound: "CCC1CC(NS(=O)(=O)C2CC2)CC1c1ncc2cnc3[nH]ccc3n12 (centres undefined)"
  category: "inactive"

Q: Which result was noted for this compound in the test: `O=C(Nc1cccc(C(F)(F)F)n1)Nc1ccnc2cc(OC(F)F)ccc12`
Result: inactive

Q: Which outcome did this test record for the compound `O=C(Nc1cccc(C(F)(F)F)n1)Nc1ccnc2cc(Cl)ccc12` ?
Result: inactive

====

Target: Tyrosine-protein kinase JAK2 (Homo sapiens, UniProt O60674);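 note: JAK2 tested as one member of a kinase panel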
Sequence (O60674 whole entry): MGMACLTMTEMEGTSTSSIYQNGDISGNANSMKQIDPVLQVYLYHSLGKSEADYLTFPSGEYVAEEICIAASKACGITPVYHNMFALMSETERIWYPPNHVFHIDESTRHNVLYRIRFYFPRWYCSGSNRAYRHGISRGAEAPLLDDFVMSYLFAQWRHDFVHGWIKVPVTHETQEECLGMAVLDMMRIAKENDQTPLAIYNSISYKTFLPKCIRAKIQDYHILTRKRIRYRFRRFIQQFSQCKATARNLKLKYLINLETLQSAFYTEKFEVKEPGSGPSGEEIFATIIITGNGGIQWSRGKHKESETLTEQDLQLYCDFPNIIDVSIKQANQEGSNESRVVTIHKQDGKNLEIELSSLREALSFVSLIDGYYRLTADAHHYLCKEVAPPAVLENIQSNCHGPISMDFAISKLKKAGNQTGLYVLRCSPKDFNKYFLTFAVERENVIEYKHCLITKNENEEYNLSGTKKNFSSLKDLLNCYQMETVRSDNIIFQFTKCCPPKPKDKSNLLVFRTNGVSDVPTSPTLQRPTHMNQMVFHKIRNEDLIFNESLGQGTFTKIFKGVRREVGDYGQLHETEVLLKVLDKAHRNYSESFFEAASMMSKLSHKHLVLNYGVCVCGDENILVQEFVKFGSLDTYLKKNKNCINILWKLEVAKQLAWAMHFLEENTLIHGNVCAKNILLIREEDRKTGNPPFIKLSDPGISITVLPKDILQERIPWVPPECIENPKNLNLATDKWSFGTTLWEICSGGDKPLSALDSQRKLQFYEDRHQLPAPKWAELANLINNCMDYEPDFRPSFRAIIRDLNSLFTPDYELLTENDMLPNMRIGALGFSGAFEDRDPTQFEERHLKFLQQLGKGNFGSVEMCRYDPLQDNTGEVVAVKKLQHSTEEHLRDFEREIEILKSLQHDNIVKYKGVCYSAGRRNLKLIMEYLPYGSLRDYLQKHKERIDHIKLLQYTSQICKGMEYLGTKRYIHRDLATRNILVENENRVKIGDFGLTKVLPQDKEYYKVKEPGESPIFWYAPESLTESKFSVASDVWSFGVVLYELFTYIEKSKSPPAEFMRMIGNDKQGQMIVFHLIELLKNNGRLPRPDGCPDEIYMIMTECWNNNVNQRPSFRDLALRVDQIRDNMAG
Format: functional
Calls of active or inactive are those of the source.
Hello, when you answer, please use one of the following outcomes: active, inactive

Examples from the recorded data:
- compound: "O=C(Nc1cccc(C(F)(F)F)n1)Nc1ccnc2cc(Cl)ccc12"
  category: "active"
- compound: "CCC1CC(NS(=O)(=O)C2CC2)CC1c1ncc2cnc3[nH]ccc3n12 (centres undefined)"
  category: "active"
- compound: "O=C(Nc1cccc(C(F)(F)F)n1)Nc1ccnc2cc(OC(F)F)ccc12"
  category: "inactive"

Note: attention shifts to another entry.
Q: I'd appreciate the recorded outcome for `O=c1[nH]c2cc(Br)cnc2[nH]1` from this test.
Result: active
